Tested on: MS2 coat protein
assayName: apparent KD of MS2 coat protein; higher = weaker reporter binding
recordedConditions: Eterna round: R107; input ligand: theophylline 20 uM
readout: apparent KD of MS2 coat protein

{"primarySequence": "UGGGUACAUGAGGAUCACCCAUGUACUGAAGGAGCGAGAAUUAUCUCAGGUAGGUCGCAGACAUGAGGAUCACCCAUGUAGUAGG [Exclusion Arginine A GF 12]", "obsValue": "30.6 nM"}
{"primarySequence": "UAUACAUGAGGAUCACCCAUGUGCCAUGAUACCAGACAUGAAAAUGUCCCUUGGCAGCAUGGUGAUUGUAUAGCGGGAAACCCGA [Utechov]", "obsValue": "261 nM"}
{"primarySequence": "CGCGGUUGAGAUGGGCCUUUGAUAAGUCUGCGAGGACCGGUACGGCCGCCACUCGAGGACAUGAGGAUCACCCAUGUACUUCGCG [Atriera]", "obsValue": "81 nM"}
{"primarySequence": "ACGAUAGGACUUGAGGAACACCCAAGUGAUACCAGCCUGGAAACAGGCCCUUGGCAGCACUAAUACUCCAAUAACCUAUCGAAUA [TheoAX 15 #MicroSwitchBubble #AlternativeMS2]", "obsValue": "172 nM"}
{"primarySequence": "CACAAUUUGUCGGCCGCCACUAAGGUAACUUUUCUCACAUGAGGAUCACCCAUGUGCCCGAAACUUAGGACCGGGAUAAUGGGUG [Usteraor]", "obsValue": "146 nM"}
{"primarySequence": "AGGACCAGGAUCCUCAUGUAACUGGUCCAACGAGGACCGGUACGGCCGCCACUCGAAUAAACAUGAGGAUCACCCAUGUAAUAAU [T''-M-T'-T-MS2]", "obsValue": "169 nM"}
{"primarySequence": "UGAUACCAGUCGGCCGCCACUACAUGAGGAUCACCCAUGUAUCCUCAACUGCUAGAUACUAGCAGUAGGACCGGGACUGGUAUCU", "obsValue": "408 nM"}
{"primarySequence": "GGACUAACCAGAAGGAGCGACACGCAGAAACUGCAAAUUCCUCCGCACGAGGAUCACCCGUGUCAGGUAGGUCGCUGGUUAGUCG [ArgBX 28]", "obsValue": "33.2 nM"}
{"primarySequence": "UUUGAUAGAACAGAUACCAGCGUGUUAUAAAACAUGAGGAUCACCCAUGUAGUGAUCAAGCGCCCUUGGCAGCUGGUUUGUUAGG [7.I]", "obsValue": "122 nM"}
{"primarySequence": "GUAUACAUGAGGAUCACCCAUGUGCCAGAAGGAGCGCUGGAAACGGCAGGUAGGUCGCUGGUAGGUCCUCUAUCUAGACGUUCGG [#17 Exclusion - Arginine A]", "obsValue": "188 nM"}
{"primarySequence": "ACGCUGAUUGAUUACAAUCAGCGAAAAGAUACCAGUGGGUAAUCCCACCCUUGGCAGCUUAAACAUGAGCAUCAGCCAUGUGGUA [TheoAS 15 #MS2Right #BothOrNeither #AlternativeMS2]", "obsValue": "114 nM"}
{"primarySequence": "AAAAUCCUAUCUGAGGAUCACCCAGGUGAAGGAGCGCCCGAAAGGGCAGGUAGGUCGCACCUGAGGAUCACCCUGGUAACCUAAA [ArgEX 10 #DoubleMS2 #OpenEnded #AlternativeMS2]", "obsValue": "105 nM"}
{"primarySequence": "GGACUAACCAGAAGGAGCGACACGCAGAAACUGCAAAAUCCUCCGCACGAGGAUCACCCGUGUCAGGUAGGUCGCUGGUUAGUCG", "obsValue": "63.6 nM"}
{"primarySequence": "GCUUGGGUGGCCCAGCCCUGGCAGGGCGAUACCAGCCCGGUAACGGGCCCUUGGCAGCGCACAUGAGGAUCACCCAUGUGGUGCG [#1 Exclusion - Theophylline A Attempt #28 (HarryS)]", "obsValue": "60.3 nM"}
{"primarySequence": "UGUGUGUGACCAGGAAAUGGUCACACACAGCGAGGACCGGUACGGCCGCCACUCGGCCGUACAUGAGGAUCACCCAUGUCGGGUA [#1 Same State - Tryptophan A Attempt #9 (HarryS)]", "obsValue": "961 nM"}
{"primarySequence": "UCGGCAGUGAACGAUACCAGCGUCACGUGGCCGGUGGUCACAUGAGGAUCACCCAUGUAACGCCCUUGGCAGCGUGCGCGUACCG [Zaancebi]", "obsValue": "63.5 nM"}
{"primarySequence": "CUGGACAUGAGGAUCACCCAUGUAAAUCCUCGAGGACCGGUACGGCCGCCACUCGAACGAGUGGCGCGCGCGCGCGCGCGCGCGC [aIa]", "obsValue": "142 nM"}
{"primarySequence": "GCCUCCAGCCGAAGGAGCGCUAGAAGGUGACAUGAGGAUCACCCAUGUGUGUGAUGUGGCUAGCAGGUAGGUCGCGGAGGAGGUU [Exclusion - Arginine B (Freestyle 20)]", "obsValue": "133 nM"}
{"primarySequence": "GGUUACUCUACGGCCGCCACUGGGCAUGUAAAUAACAUGAGGAUCACCCAUGUGGAUUAAUAUUACAGGACCGGGUAGUGUAACC [Tryptophan B 23]", "obsValue": "253 nM"}

src = the supplement of paper PMC9170038
